test: recombinant UMI read abundance after kanamycin selection (control-corrected) (log10(CPM+1)); higher = more efficient recombination; extreme values may be limits of the assay; sequences stand for … in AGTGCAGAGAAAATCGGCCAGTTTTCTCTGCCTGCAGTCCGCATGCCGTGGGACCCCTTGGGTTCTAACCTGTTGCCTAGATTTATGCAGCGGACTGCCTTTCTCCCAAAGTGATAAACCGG…AGGTTGGTTTCACT; site = the 11-nt donor;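 further: IS621 bridge recombinase in Escherichia coli cells against a fixed T5 target plasmid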
measurementLabel: recombinant UMI read abundance (log10)

monomerSequence: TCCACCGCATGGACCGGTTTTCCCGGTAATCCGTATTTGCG (site TCCGCCGCTCG)
measurement: 0.0234
//
monomerSequence: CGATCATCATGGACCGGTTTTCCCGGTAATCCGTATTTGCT (site CGATAATCTCG)
measurement: 0
//
monomerSequence: GCTAATACATGGACCGGTTTTCCCGGTAATCCGTATTTGGC (site GCTAATACTGC)
measurement: 0.0276
//
monomerSequence: TTTGCGTCATGGACCGGTTTTCCCGGTAATCCGTATTTGCT (site TTTGCGCCTAG)
measurement: 0.0115
//
monomerSequence: GGGCCTACATGGACCGGTTTTCCCGGTAATCCGTATTTGCT (site GGGCCTACTAG)
measurement: 1.86
